tested_on: SHP2 (Homo sapiens (Human))
test_protocol: SHP2 Allosteric Inhibition Assay
measurement_context: 0.5 nM SHP2 activated with 0.5 μM peptide IRS1_pY1172(dPEG8)pY1222; surrogate substrate DiFMUP; prompt fluorescence
From the text: SHP2 Allosteric Inhibition Assay SHP2 is allosterically activated through binding of bis-tyrosyl-phorphorylated peptides to its Src Homology 2 (SH2) domains. […] The catalytic activity of SHP2 was monitored using the surrogate substrate DiFMUP in a prompt fluorescence assay format. […]
pIC50: −log10 of the molar value.
attribute_measured: pIC50

Answered cases to consult:
{"smiles_representation": "Nc1nc(N2CCC3(CC2)CCC(F)(F)[C@H]3N)cnc1Sc1cccc(NC(=O)c2c(O)nc3ccccn3c2=O)c1Cl", "pIC50": 8.00}
{"smiles_representation": "CC1(CN)CCN(c2nnc(Sc3cccc(NC(=O)c4c(O)nc5c6ccccc6ccn5c4=O)c3Cl)c(N)n2)CC1", "pIC50": 7.89}
{"smiles_representation": "CC1(CN)CCN(c2nnc(Sc3cccc(NC(=O)C4=C(O)CN(c5ccccc5)C4=O)c3Cl)c(N)n2)CC1", "pIC50": 7.92}

(1) CC1(N)CCN(c2cnc(Sc3cccc(NC(=O)C4=C(O)CN(c5ccccc5)C4=O)c3C(F)(F)F)c(N)n2)CC1
(2) CC1(CN)CCN(c2nnc(Sc3cccc(NC(=O)c4c(O)nc5cnccn5c4=O)c3Cl)c(N)n2)CC1
(3) Nc1nc(N2CCC(N)(C(F)(F)F)CC2)cnc1Sc1cccc(NC(=O)c2c(O)nc3ccccn3c2=O)c1Cl
Please rank these compounds by pIC50 in descending order. Your task in answering is to list the labels in the requested order. 1, 2, 3

* * *

tested_on: SHP2 (Homo sapiens (Human))
test_protocol: SHP2 Allosteric Inhibition Assay
measurement_context: 0.5 nM SHP2 activated with 0.5 μM peptide IRS1_pY1172(dPEG8)pY1222; surrogate substrate DiFMUP; prompt fluorescence
attribute_measured: IC50 (nM)

Some solved entries appear below for comparison.
{"compound": "CC1(N)CCN(c2nnc(Sc3cccc(NC(=O)C4=C(O)CN(c5ccccc5)C4=O)c3Cl)c(N)n2)CC1 [Example 52]", "IC50 / nM": 3}
{"compound": "CC[C@@H]1OCC2(CCN(c3cnc(Sc4cccc(NC(=O)c5c(O)nc6n(c5=O)CCCC6)c4Cl)c(N)n3)CC2)[C@@H]1N [Example 29]", "IC50 / nM": 12}
{"compound": "Nc1nc(N2CCC(C(N)C(F)(F)F)C2)cnc1Sc1cccc(NC(=O)c2c(O)nc3ccccn3c2=O)c1Cl (stereo not shown) [Example 18]", "IC50 / nM": 789}

(P) CCC1C(O)=C(C(=O)Nc2cccc(Sc3ncc(N4CCC(C)(N)CC4)nc3N)c2Cl)C(=O)N1C (stereo not shown) [Example 55]
(Q) Cc1oc(=O)oc1COC(=O)NCC1(C)CCN(c2cnc(Sc3cccc(NC(=O)c4c(O)nc5ccccn5c4=O)c3Cl)c(N)n2)CC1 [Example 25]
(R) CC1(CN)CCN(c2nnc(Sc3cccc(NC(=O)C4=C(O)NC5CCCCN5C4=O)c3Cl)c(N)n2)CC1 (stereo not shown) [Example 37]
Kindly order the items shown according to IC50, from the highest value down. State the ranking by listing the labels in the requested order. Q, R, P

* * *

tested_on: SHP2 (Homo sapiens (Human), UniProt Q06124)
test_protocol: SHP2 Allosteric Inhibition Assay
measurement_context: 0.5 nM SHP2 activated with 0.5 μM peptide IRS1_pY1172(dPEG8)pY1222; surrogate substrate DiFMUP; prompt fluorescence
From the text: SHP2 Allosteric Inhibition Assay SHP2 is allosterically activated through binding of bis-tyrosyl-phorphorylated peptides to its Src Homology 2 (SH2) domains. […] The catalytic activity of SHP2 was monitored using the surrogate substrate DiFMUP in a prompt fluorescence assay format. […]
attribute_measured: IC50 (nM)

Known results for compounds:
{"compound": "C[C@@H]1CC2(CCN(c3cnc(Sc4cccc(NC(=O)c5c(O)nc6n(c5=O)CCCC6)c4Cl)c(N)n3)CC2)[C@H](N)[C@H]1F", "attribute_measured": "IC50", "value_reported": 16}
{"compound": "C[C@@H]1CN(c2cnc(Sc3cccc(NC(=O)C4=C(O)CN(c5ccccc5)C4=O)c3Cl)c(N)n2)C[C@H](C)N1", "attribute_measured": "IC50", "value_reported": 11}
{"compound": "Nc1nc(N2CCC3(CC2)CC(F)(F)C[C@H]3N)cnc1Sc1cccc(NC(=O)c2c(O)nc3n(c2=O)CCCC3)c1Cl", "attribute_measured": "IC50", "value_reported": 42}
{"compound": "CCC1C(O)=C(C(=O)Nc2cccc(Sc3ccc4nc(N5CCCCC5)[nH]c4n3)c2Cl)C(=O)N1C (stereo not shown)", "attribute_measured": "IC50", "value_reported": 25}
{"compound": "CN1C(=O)C(C(=O)Nc2cccc(Sc3ncc(N4CCC(C)(N)CC4)nc3N)c2Cl)=C(O)C1Cc1ccccc1 (stereo not shown)", "attribute_measured": "IC50", "value_reported": 7.3}

(1) NCC1(O)CCN(c2cnc(Sc3cccc(NC(=O)c4c(O)nc5ccccn5c4=O)c3Cl)c(N)n2)CC1
(2) O=C(Nc1cccc(Sc2ccc3nc(N4CCCCC4)[nH]c3n2)c1Cl)C1=C(O)[C@H](Cc2ccccc2)NC1=O
For the two items 1 and 2 , which reports the higher IC50 value? Mark your selection by writing its label. 2

* * *

tested_on: UniProt:Q06124
test_protocol: SHP2 Allosteric Inhibition Assay
measurement_context: 0.5 nM SHP2 activated with 0.5 μM peptide IRS1_pY1172(dPEG8)pY1222; surrogate substrate DiFMUP; prompt fluorescence
pIC50: −log10 of the molar value.
attribute_measured: pIC50

(1) Nc1nc(N2CCC(N)(CF)CC2)cnc1Sc1cccc(NC(=O)c2c(O)nc3ccccn3c2=O)c1Cl
(2) NCC1(F)CCN(c2cnc(Sc3cccc(NC(=O)c4c(O)nc5ccccn5c4=O)c3Cl)c(N)n2)CC1
(3) Nc1nc(N2CCC3(CCC[C@H]3N)CC2)cnc1Sc1cccc(NC(=O)c2c(O)nc3n(c2=O)CCCC3)c1Cl
(4) Nc1nc(N2CCC3(CCC[C@H]3N)CC2)nnc1Sc1cccc(NC(=O)c2c(O)nc3ccccn3c2=O)c1Cl
Output the entries ranked by pIC50 from maximum down to minimum. Your task in answering is to list the labels in the requested order. 3, 1, 2, 4
(3: 9.00, 1: 8.34, 2: 8.00, 4: 7.80)

(P) CC1(CN)CCN(c2nnc(Sc3cccc(NC(=O)c4c(O)nc5n(c4=O)CCCC5)c3Cl)c(N)n2)CC1
(Q) CC1(CN)CCN(c2cnc(Sc3cccc(NC(=O)c4c(O)nc5[nH]ccn5c4=O)c3Cl)c(N)n2)CC1
(R) Nc1nc(N2CCC3(CCC[C@H]3N)CC2)nnc1Sc1cccc(NC(=O)c2c(O)nc3n(c2=O)CCCC3)c1Cl
(S) Nc1nc(N2CCC(N)(C(F)(F)F)CC2)cnc1Sc1cccc(NC(=O)c2c(O)nc3n(c2=O)CCCC3)c1Cl
With regard to pIC50, arrange the entries in ascending order, please. Use the labels to give the requested order. S, P, Q, R

(A) CC1(CN)CCN(c2cnc(Sc3cccc(NC(=O)c4c(O)nc5n(c4=O)CCNC5)c3Cl)c(N)n2)CC1
(B) CC1(CN)CCN(c2nnc(Sc3cccc(NC(=O)c4c(O)nc5[nH]ccn5c4=O)c3Cl)c(N)n2)CC1
(C) CC1(CN)CCN(c2nnc(Sc3cccc(NC(=O)c4ccc5ccccn5c4=O)c3Cl)c(N)n2)CC1
(D) CN1C(=O)C(C(=O)Nc2cccc(Sc3ccc4nc(N5CCCCC5)[nH]c4n3)c2Cl)=C(O)C1Cc1ccccc1 (stereo not drawn)
Parameters: sort_field (pIC50), sort_dir (desc). Give your ranking as a list of the labels in the requested order. A, D, B, C

(1) CC1(CN)CCN(c2cnc(Sc3cccc(NC(=O)c4c(O)nc5ccccn5c4=O)c3Cl)c(N)n2)CC1
(2) Cn1c(=O)c(C(=O)Nc2cccc(Sc3ncc(N4CCC(C)(CN)CC4)nc3N)c2Cl)c(O)c2ccccc21
Lower value of pIC50 belongs to which: 1 or 2 ? Mark your answer with the label of the selected entry. 2
(2: 7.36, 1: 8.15)
